Where a name gives a salt, the structure may show the parent alone.
measured.metric: melting point (°C)
Quick note: give the figure in °C, leave out the unit.

CCN(CC)C(=O)N(C1CCCCC1)C1CC2CCC(C1)N2C(=O)[C@@H](Cc1ccc(Cl)cc1)NC1CNC1 (stereo partly shown) (as salt: HCl) :: 170

Here's the next entry for you.
Data point: CCN(CC)C(=O)N(C1CCCCC1)C1CC2CCC(C1)N2C(=O)[C@@H](Cc1ccc(Cl)cc1)NC1CCC(N)CC1 (stereo partly shown) (as salt: HCl) ; melting point = 208

---

- target.or.system: human MC3 receptor (Homo sapiens, UniProt P41968)
- Sequence (P41968 whole entry): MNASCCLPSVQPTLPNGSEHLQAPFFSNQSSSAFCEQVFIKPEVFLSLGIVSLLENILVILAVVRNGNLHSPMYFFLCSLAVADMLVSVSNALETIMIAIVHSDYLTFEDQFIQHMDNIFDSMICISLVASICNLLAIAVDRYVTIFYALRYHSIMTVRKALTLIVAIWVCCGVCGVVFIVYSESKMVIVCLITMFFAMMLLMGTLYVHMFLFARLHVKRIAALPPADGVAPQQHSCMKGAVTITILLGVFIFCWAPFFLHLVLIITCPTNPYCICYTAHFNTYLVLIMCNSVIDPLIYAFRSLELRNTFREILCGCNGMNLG
- test.protocol: Functional agonist assay: cAMP formation in CHO(dhfr-) cells expressing the human MC3 receptor
- run.parameters: 1 hour incubation, 50% of the maximum stimulation obtained with the compound, read-out: EC50 with respect to the MC3 receptor
measured.metric: pEC50
// pEC50 is dimensionless: -log10 of concentration (M)

Data point: CCN(CC)C(=O)N(C1CCCCC1)C1CC2CCC(C1)N2C(=O)[C@@H](Cc1ccc(Cl)cc1)NC1CCC(N)CC1 (stereo partly shown) [compound 3] ; pEC50 = 6.48

---

- target.or.system: human MC4 receptor (Homo sapiens, UniProt P32245)
- Sequence (P32245 whole entry): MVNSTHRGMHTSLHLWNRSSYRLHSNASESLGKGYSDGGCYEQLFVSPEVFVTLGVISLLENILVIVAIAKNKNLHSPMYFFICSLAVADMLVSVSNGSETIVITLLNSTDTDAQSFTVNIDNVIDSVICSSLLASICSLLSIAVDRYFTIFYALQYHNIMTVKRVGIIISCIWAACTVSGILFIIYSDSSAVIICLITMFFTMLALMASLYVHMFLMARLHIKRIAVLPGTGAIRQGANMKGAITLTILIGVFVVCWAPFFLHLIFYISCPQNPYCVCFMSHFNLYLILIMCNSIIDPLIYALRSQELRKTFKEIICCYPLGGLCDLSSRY
measured.metric: IC50 (nM)
Quick note: give the figure in nM, leave out the unit.

// IC50 (human MC4 receptor (Homo sapiens, UniProt P32245)) for CCN(CC)C(=O)N(C1CCCCC1)C1CC2CCC(C1)N2C(=O)[C@@H](Cc1ccc(Cl)cc1)NC1CCC(N)CC1 (stereo partly shown) [compound 3] = 280

---

Counter-ions that a name gives are not always drawn.
measured.metric: melting point (°C)
Quick note: give the figure in °C, leave out the unit.

Here is how some compounds turned out for melting point.
CCN(CC)C(=O)N(C1CCCCC1)C1CC2CCC(C1)N2C(=O)[C@@H](Cc1ccc(Cl)cc1)NC1CCNC1 (some centres unmarked) (as salt: HCl) :: 220
CCN(CC)C(=O)N(C1CCCCC1)C1CC2CCC(C1)N2C(=O)[C@@H](Cc1ccc(Cl)cc1)NCCN (some centres unmarked) (as salt: HCl) :: 105
CCN(CC)C(=O)N(C1CCCCC1)C1CC2CCC(C1)N2C(=O)[C@@H](Cc1ccc(Cl)cc1)NCCCN (some centres unmarked) (as salt: HCl) :: 215

Data point: CCN(CC)C(=O)N(C1CCCCC1)C1CC2CCC(C1)N2C(=O)[C@@H](Cc1ccc(Cl)cc1)NC(C)/C=N/O (some centres unmarked) (as salt: HCl) ; melting point = 132
